Experiment: In vitro % Fu, human plasma
Type: in vitro ADME
Conditions: read-out: In Vitro % Fu (Hu Plasma)
measure_name: fraction unbound
// no unit, no text: just the number

Prompt: What value of fraction unbound has been recorded for this entry: CC(C)(O)c1cc(-c2csc(-c3ccc(C(=O)N4CCC(O)CC4)cc3Cl)c2)ccn1 [Compound 1]
Completion: 0.026

###

Test system: CALU6
Experiment: Cancer cell growth inhibition, Sulforhodamine B
Type: cell-based
Conditions: Homo sapiens, Calu-6; CALU6 (lung), 72 hr; Non-Responder Cell Lines with IC50 >10 uM or Not Determined
measure_name: IC50

Prompt: Entry CC(C)(O)c1cc(-c2csc(-c3ccc(C(=O)N4CCC(O)CC4)cc3Cl)c2)ccn1 has what IC50?
Completion: > 10 µM

Reference source for all entries: patent US20220356170A1
